# System: HEK-293T
# test summary: Multiplex assay against HEK293T
# Assay type: toxicity, cell-based
# run parameters: human, 48 h, 10 µM, compound concentration 10 uM, replicate 2
Respond with class 1 for Population Hoechst High Intensity Objects (%) values of 9% and above, class 0 for values below.

Query: Determine whether this compound has Population Hoechst High Intensity Objects (%) no lower than 9%: N#Cc1c(N)nc(SCc2csc(-c3ccc(Cl)cc3)n2)c(C#N)c1-c1ccc(OCCO)cc1 [CAPADENOSON]
Result: class 1

Query: Same again, this time with "COc1c(C)cc(NC(=O)c2nn(Cc3ccc(F)cc3)c3c2CN(C(=O)c2ccc[nH]2)C[C@]3(C)C(N)=O)cc1C"
Result: class 1

Query: Same question, C[C@H]1[C@H]2CC[C@H]3[C@@H]4CC=C5C[C@@H](N(C)C)CC[C@]5(C)[C@H]4CC[C@]23CN1C [CONESSINE] this time
Result: class 0

Query: Then what about the compound "COc1ccccc1N1CCN(CCCCNC(=O)c2ccc3ccccc3c2)CC1.Cl" ?
Result: class 1

Query: Also CSc1ccccc1N1CCN(CCCCCC(=O)NC2CCCc3ccccc32)CC1.Cl (configuration not stated) ?
Result: class 1

Query: Same thing, different compound: O=C(NCC(=O)N1CC[C@H](N[C@H]2CC[C@@](O)(c3ccc(-c4ncccn4)cn3)CC2)C1)c1cccc(C(F)(F)F)c1 [PF-4136309]
Result: class 0

Query: Param item: COc1ccc2c(c1)C(C(=O)N(Cc1ccc(N(C)C)cc1)c1ccc(C(C)C)cc1)CCC2.Cl (configuration not stated)
Result: class 0

Query: // same read-out, input: O=C(O)c1cc2ccccc2c(Cc2c(O)c(C(=O)O)cc3ccccc23)c1O [PAMOIC ACID]
Result: class 0

Query: Again, but for Cc1ccc(F)cc1C(=O)Nc1ccc(C(=O)N2Cc3cccn3Cc3ccccc32)c(Cl)c1 [LIXIVAPTAN]
Result: class 0

Query: Queued: CN1CCN2c3ncccc3Cc3ccccc3C2C1 (configuration not stated) [MIRTAZAPINE]
Result: class 0

Now, please, on to the next compound.
Query: Dear colleague, could you confirm whether Cl.Clc1ccc2nsnc2c1NC1=NCCN1 [TIZANIDINE HYDROCHLORIDE] has Population Hoechst High Intensity Objects (%) at or above 9%?
Result: class 0
